Biological target: TRAP1 enzyme (Homo sapiens, UniProt Q12931)
Sequence (Q12931 60-704): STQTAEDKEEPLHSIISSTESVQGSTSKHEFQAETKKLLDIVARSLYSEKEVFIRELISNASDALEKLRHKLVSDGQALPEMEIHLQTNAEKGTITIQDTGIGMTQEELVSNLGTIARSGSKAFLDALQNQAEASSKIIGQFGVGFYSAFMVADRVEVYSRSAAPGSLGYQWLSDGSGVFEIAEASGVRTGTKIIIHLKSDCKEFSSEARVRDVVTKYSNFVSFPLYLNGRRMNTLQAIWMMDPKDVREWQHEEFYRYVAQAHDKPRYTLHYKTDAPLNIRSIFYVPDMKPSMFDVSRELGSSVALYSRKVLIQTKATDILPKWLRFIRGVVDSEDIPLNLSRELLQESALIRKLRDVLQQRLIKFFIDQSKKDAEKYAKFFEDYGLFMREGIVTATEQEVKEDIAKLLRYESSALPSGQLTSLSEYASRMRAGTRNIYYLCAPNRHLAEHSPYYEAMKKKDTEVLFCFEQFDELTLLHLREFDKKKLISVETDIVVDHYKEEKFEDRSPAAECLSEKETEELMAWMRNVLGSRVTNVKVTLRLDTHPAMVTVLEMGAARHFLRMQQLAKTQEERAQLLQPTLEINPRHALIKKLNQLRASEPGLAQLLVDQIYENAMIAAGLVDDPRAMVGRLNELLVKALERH
Assay: ADP Glo assay (ATPase activity of TRAP1)
Conditions: 150 nM Trap1, 20 µM ATP, concentration for half maximal activation; read-out: ADP GLO DRC: GeoMean EC50
For each of the compounds below, state its EC50.

Quick check: EC50 of Cn1ccc(=O)cc1C(=O)Nc1ccc2c(c1)S(=O)(=O)N(c1ccc(C(F)(F)F)cc1)CCO2 ?
30 to 100 µM

Also check Cc1nnccc1C(=O)Nc1ccc2c(c1)S(=O)(=O)N(c1ccc(C(F)(F)F)cc1)CCO2
30 to 100 µM

Also check COc1ncncc1C(=O)Nc1ccc2c(c1)S(=O)(=O)N(c1ccc(C(F)(F)F)cc1)CCO2
20 to 30 µM

Also check Cc1nccnc1C(=O)Nc1ccc2c(c1)S(=O)(=O)N(c1ccc(C(F)(F)F)cc1)CCO2
30 to 100 µM

meta.source: patent US20230218632A1
